The measured values listed here are drawn from the supplement of paper PMC9170038.

Tested on: MS2 coat protein
Assay: apparent KD of MS2 coat protein, switch ON state; designed switch direction (-1 OFF switch, 1 ON switch): -1; higher = weaker reporter binding
Conditions: FMN input: 0 or 200 uM; Eterna round: R93 (includes R88 designs)
Readout Kind: apparent KD of MS2 coat protein (nM)
Value expressed in nM; do not type the unit.

Examples with their reported apparent KD of MS2 coat protein follow.
| Monomer Sequence | Readout Kind | Observed Result |
| --- | --- | --- |
| AAAAAACAUGAGGAUCACCCAUGUGAGGAUAUGUACGAAAUAAAAUAAAAAUAAAAGUACAGAAGGCACAAAAA [Mat - Exclusion 1 - Eli mod - D4] | apparent KD of MS2 coat protein | 40.2 |
| CAGUACUGAGGAUAUACAUGAGGAUCACCCAUGUGUUAAAGCUAGGAAACUAGCAAAUGUAGAAGGCAGUACUG [Ex3: 817] | apparent KD of MS2 coat protein | 14 |

Input: Request the reported apparent KD of MS2 coat protein associated with AGUCAGAGAGGAUAUACAUGAAAAAAAAAAGUAAGAUCCCUACAUGAGGAUCACCCAUGUAGAAGGCUCUGACA [Ex2 Design 137: Sub-opt 1]
Output: 60.5

Input: Request the reported apparent KD of MS2 coat protein associated with AACAAGACAGGAUAUACAUGAGGAUCACCCAUGUCACAAUAAAGCAGCGUAACACAAAGUAGAAGGGUCAUGGA [Ruby 9]
Output: 83.3

Input: Request the reported apparent KD of MS2 coat protein associated with AAGAAGGUAGGAUAUACAAAAUAAAAGAAAAGAAAGAAAGAACAUGAGGAUCACCCAUGUAGAAGGACCAAGAA [Khutawyre Wegaf]
Output: 34.3

Input: Request the reported apparent KD of MS2 coat protein associated with GGAAAACAUGAGGAUCACCCAUGUAAGGAUAUGCUAAGGAAGGAAAAAAACCCACCAGGCAGAAGGUACUAAAG [Janelle Amethyst 18 Mod 4 - Jieux - Exclusion 1]
Output: 23.1

----------
System: MS2 coat protein
Assay: apparent KD of MS2 coat protein; designed switch direction (-1 OFF switch, 1 ON switch): -1; higher = weaker reporter binding
Details: Eterna round: R95; input ligand: FMN 200 uM
Class 1: apparent KD of MS2 coat protein at least 200 nM. Class 0: apparent KD of MS2 coat protein below 200 nM.

| Monomer Sequence | Group |
| --- | --- |
| GUGAAGUAAGGAUAUACAUGAGGAUCACCCAUGUGGAGGAAGGUGAUGGGAGUAGGUAGUAGAAGGUACGAGGA [JR_Exclu3_Sub064] (puzzle: Exclusion 3) | 0 |
| AAAAGUCCGGAGGAUAUCCACAAGCUCGGGAAAGGAGAAGGCCGGACAUGAGGAUCACCCAUGUGUCUUCUUGC [Rebila] (puzzle: Exclusion 6) | 1 |
| CAGUACUGAGGAUAUACAUGAGGAUCACCCAUGUGUUCCAGGUAGGAAACUAGCAAAAGUAGAAGGCAGUACUG [salish99_ex3_r3_078] (puzzle: Exclusion 3) | 0 |
| AAGAAACAUGAGGAUCACCCAUGUGAGGAUAUGAUGAGUAUUAUGUAUGUAGUAUGAAUCAGAAGGCACAAAGG [Mat - Mod Mix D40] (puzzle: Exclusion 1) | 1 |

Now look at this one.
Input: Please indicate if the recorded apparent KD of MS2 coat protein for AGAAGUAGUAACCGAUCCUACAUGAGGAUCACCCAUGUAGCCAGACGUGCACGCGAAGCUCGUCAGACUACCAGAUG [salish99_TOv1_r3_026] (puzzle: Sensor v3, turn-off variant 1) meets or exceeds 200 nM.
Output: 1

----------
Test system: MS2 coat protein
Assay: apparent KD of MS2 coat protein; designed switch direction (-1 OFF switch, 1 ON switch): -1; higher = weaker reporter binding
Conditions: input ligand: FMN 200 uM
Readout Kind: apparent KD of MS2 coat protein (nM)
Value expressed in nM; do not type the unit.

Examples with their reported apparent KD of MS2 coat protein follow.
| Monomer Sequence | Measurement Unit | Observed Result |
| --- | --- | --- |
| CUAAUAGCAGCAGGAUAUCUCACAUGAGGAUCACCCAUGUGGGACCGCCACCUCGUGUGUAAAGAAGAGAAGGGCUCGCACUCC [Eternabot solution 6] (Eterna round: R96, puzzle: Exclusion NG 2) | nM | 37.6 |
| ACAUGAGGAUCACCCAUGUCUGGCUGGUCUGCUCCGGUUGUUGAGGAUAUAGUUCGGUGUUCGCGCUAGAAGGUGAGGGCUGGA [Aenatbe mod 39] (Eterna round: R96, puzzle: Exclusion NG 3) | nM | 260 |

Input: Request the reported apparent KD of MS2 coat protein associated with UUUAUGUCAGGAUAUACAUGAGGAUCACCCAUGUAUACCUUAAGGUAUACAUGGGAAUGUAGAAGGGACCUCCU [Omei Ex3 Pseudoloop 8] (Eterna round: R97, puzzle: Exclusion 3)
Output: 26.6

----------
Tested on: MS2 coat protein
Test: apparent KD of MS2 coat protein; higher = weaker reporter binding
Conditions: Eterna round: R107; input ligand: arginine 13.2 mM
Class met: apparent KD of MS2 coat protein at least 20 nM. Class not met: apparent KD of MS2 coat protein below 20 nM.

Monomer Sequence	Assay System	Group
UGUAUGGACUGAAGGAGCGGUAGAUAGCUUGAGGAUCACCCAAGUAAUAAGGCGAAAGCCUACCAGGUAGGUCGCAGUCCAUACU	MS2 coat protein	met

Now look at this one.
Input: Please indicate if the recorded apparent KD of MS2 coat protein for GACAUGAGGAUCACCCAUGUUUGCUAUGAAGGAGCGUCGGAAAUGACAGGUAGGUCGCAUAGUAGACCUUGUAUUUCGUGUGUUU [#01 Exclusion - Arginine A] meets or exceeds 20 nM.
Output: not met

----------
System: MS2 coat protein
Test: apparent KD of MS2 coat protein; designed switch direction (-1 OFF switch, 1 ON switch): -1; higher = weaker reporter binding
Conditions: input ligand: FMN 200 uM
Readout Kind: apparent KD of MS2 coat protein
Please provide the amount together with its unit, number first.

| Monomer Sequence | apparent KD of MS2 coat protein |
| --- | --- |
| AAGAGUGAGCGAGGAUAUUGAUUUUGGCGUAGUCAAGAAGGCGCGUACAUGAGGAUCACCCAUGUGCUCAGAGCGCAAAAGGGU [Gequon] (Eterna round: R96, puzzle: Exclusion NG 1) | 0.208 µM |
| AACAGGUCAGGAUAUACAUGAGGAUCACCCAUGUAGACUUCUAGUCUACCGAGGCUGUGUAGAAGGGACCUGAA [Exclusion 3 (MOD4 of #98 Marzena11)] (Eterna round: R97, puzzle: Exclusion 3) | 0.175 µM |
| UGUUUAUAUGAAGGAUAUACUUAACAUGAGGAUCACCCAUGUGGUGUUGUGAGUGAGUGAGUUUAGUAGAAGGUCAAUUCUUUU [JMF's solution 97] (Eterna round: R96, puzzle: Exclusion NG 2) | 0.996 µM |

Proceed to the following item.
Input: Request the reported apparent KD of MS2 coat protein associated with CCAAGAUAGGAAGGAUAUUGUACAUGAGGAUCACCCAUGUAAUAAAUGAGGAUCACGGAUGUAGACAAGAAGGUCCGGAUAAGC [Ostracism 5 - Jieux - Exclusion NG 2] (Eterna round: R96, puzzle: Exclusion NG 2)
Output: 0.0841 µM

----------
System: MS2 coat protein
Test: apparent KD of MS2 coat protein; higher = weaker reporter binding
Settings: Eterna round: R107; input ligand: theophylline 2 mM
Readout Kind: apparent KD of MS2 coat protein
Please provide the amount together with its unit, number first.

Monomer Sequence	Assay System	Observed Result
ACAUGAGGAUCACCCAUGUAUUGAGCCGAAGGAGCGGCAGGUAUGCCAGGUAGGUCGCGGUUAGAGUAGAUUGAUGUUCUUUUGU [Exclusion - Arginine A / B]	MS2 coat protein	16.3 nM
ACAUGAGGAUCACCCAUGUACAUGAGGGAAGGAGCGGUACAUGUGCCAGGUAGGUCGCCCAACAGCAUCAGCCAUGUACAACGGA [xxbmullin]	MS2 coat protein	69.5 nM
CCCAGUUAUAACAAAGGAAUUAUACUCGAAGGAGCGUCAUAGUAGGCAGGUAGGUCGCGAGACAUGAGGAUCACCCAUGUAGAGA [k,lmullin]	MS2 coat protein	49.4 nM
GGAUUCAACUCGGCCGCCACUGGUGAUCCUAAUGUACAUGAGGAUCACCCAUGUACAUGAGAAUAUAGGACCGGGAGAUAAGUUA [Tryptophan B V3 (+3U)]	MS2 coat protein	32.2 nM
UGUCCUCAUGCGGCCGCCACUGUCGGCCGCCACUAAACAUGAGGAUCACCCAUGUAGGACCGGGACAGGACCGGGCAUGGGUGCU [TryBS - #DoubleAptamer]	MS2 coat protein	244 nM
UAAUCCGGUCCUCGAUAGGUGAUCCUCUAACGAGGACCGGUACGGCCGCCACUCGAUAACAUGAGGAUCACCCAUGUAAUAAUAA [|T'-M'-Trp-Ms2|_Design16]	MS2 coat protein	45.1 nM
GAAGGAGUUAUGGGUACUCCUUCACUGGAAGGAGCGAGCGAAAGCUCAGGUAGGUCGCCAGAAACAUGAGGAUCACCCAUGUAAU [(A)''-(M)'-(A)'-(Arg1)-(Arg2)-(M1)-(M2)_Design6]	MS2 coat protein	65.3 nM
AAAGCCUUGCCCGGUGUUCCGAAAGUGGAAGGAGCGCACAUUGGUGCAGGUAGGUCGCCACAUGAGGAUCACCCAUGUCUAGGCU [Isbeat]	MS2 coat protein	135 nM
ACCUGUACGAAAAGUGCAGGACAUGGUAAACGAGGACCGGUACGGCCGCCACUCGAAGAAAACAAGUGGAUCACCCUUGUCCAUG [TrypAS 4 #AlternativeMS2 #Zipper #StaticStem]	MS2 coat protein	2090 nM
UGCAUGAGGAUCGCCCGUGUCGAGCCGGUGCGAGGACCGGUACGGCCGCCACUCGAGACAUGAGGAUCACCCAUGUUGUGCGUGA [Exclusion Tryptophan A GF24]	MS2 coat protein	56.4 nM

Input: Request the reported apparent KD of MS2 coat protein associated with UGGCAAGAGGGAAGGAGCGUCAGCUGAGUCACAUGAGGAUCACCCAUGUAGCACAUGGUGUGACAGGUAGGUCGCCCUCUGCCGU [SS-ArgB11]
Output: 28.8 nM

Input: Request the reported apparent KD of MS2 coat protein associated with UAGAUAGAGGGAAGGAGCGCAGUAACAUAACAUGAGGAUCACCCAUGUAAGAAAUUAAUAAUGCAGGUAGGUCGCCCAAGAUGAU [#10 Same State - Arginine B]
Output: 15.1 nM

Input: Request the reported apparent KD of MS2 coat protein associated with AGCAUGUUCAGAAGGAGCGUGCAAGGGUACAUUCGUAGGACAUGAGGAUCACCCAUGUAAGCACAGGUAGGUCGCUGGACAUGCU [Arg B SS t5]
Output: 129 nM
